Assay: CCTE_Shafer_MEA_acute_network_burst_percentage: CCTE's Neural Acute Assay for Percentage of Network Bursts, Shafer Lab (AID 2284022);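 further: curves fitted for loss so actives lower network burst percentage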
The source made the active and inactive calls. How the source made its calls: active means hit-call score of the fitted dose curve at least 0.9, where 1 is the maximum; inactive means score below 0.9.
Possible outcomes: active, inactive

>>> df
                                   compound  qualitative_label
0  CN(C)[C@@H]1C(=O)C(C(N)=O)=C(O)[C@@]2(O)C(=O)C3=C(O)c4c(O)cccc4[C@@](C)(O)[C@H]3[C@H](O)[C@@H]12           inactive
1  CCOP(=O)(NC(C)C)Oc1ccc(SC)c(C)c1 (stereo not given)           inactive
2                 CNC(=O)ON=C(SC)C(=O)N(C)C           inactive
3  CC(C)[C@H](C(=O)O[C@H](C#N)c1cccc(Oc2ccccc2)c1)c1ccc(Cl)cc1             active
4             CC1=NNC(=O)N(/N=C/c2cccnc2)C1           inactive

----------
Experiment: IUF_NPC1_viability_72hr: Viability Assessment at 72 hours in the Leibniz Research Institute for Environmental Medicine (IUF) Neural Progenitor Cell Proliferation Assay (NPC1) (AID 2284209)
Activity calls are given as the source filed them. Rule for the calls: active = hit-call score of the fitted dose curve at least 0.9, where 1 is the maximum; inactive = score below 0.9.
Possible outcomes: t = active, f = inactive

In [3]: df
Out[3]:
                                    compound  qualitative_label
 0         CC(C)N(C(=O)SCC(Cl)=C(Cl)Cl)C(C)C                  f
 1  COP(=O)(OC)C(O)C(Cl)(Cl)Cl (stereo not given)                  f
 2     CN1COCN(Cc2cnc(Cl)s2)C1=N[N+](=O)[O-]                  f
 3          CCOP(=S)(OCC)Oc1cc(C)nc(C(C)C)n1                  f
 4             CC1=NNC(=O)N(/N=C/c2cccnc2)C1                  f
 5     COP(=O)(NC(C)=O)SC (stereo not given)                  f
 6                        CCCSP(=O)(OCC)SCCC                  f
 7  CCOP(=S)(OCC)OC(Cl)C(Cl)(Cl)Cl (stereo not given)                  f
 8                                 S=C1NCCN1                  f
 9          CCOP(=O)(OCC)Oc1cc(C)nc(C(C)C)n1                  f
10                           C[N+]1(C)CCCCC1                  f
11  O=[N+]([O-])c1cc(C(F)(F)F)c(Cl)c([N+](=O)[O-])c1Nc1ncc(C(F)(F)F)cc1Cl                  t
12  CON=C(C(=O)OC)c1ccccc1CON=C(C)c1cccc(C(F)(F)F)c1                  t
13  CCOP(=S)(Oc1cnc(C(C)(C)C)nc1)OC(C)C (stereo not given)                  f
14  CSC1=N[C@@](C)(c2ccccc2)C(=O)N1Nc1ccccc1                  f

----------
Read-out: Glyceraldehyde-3-phosphate dehydrogenase (Homo sapiens)
Experiment: CLD_GAPDH_6hr: CellzDirect (CLD) Gene Expression Assay for Baseline Control (Glyceraldehyde 3-phosphate dehydrogenase) at 6 hours (AID 2283681);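 further: active means increased signal relative to DMSO vehicle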
Results filed as inconclusive are left out. The source made the active and inactive calls. Rule for the calls: active = hit-call score of the fitted dose curve at least 0.9, where 1 is the maximum; inconclusive = response in the unintended direction; inactive = score below 0.9.
MEASUREMENT LABEL: outcome

>>> print(df.to_string())
                                    compound  recorded_value
 0                 CNC(=O)ON=C(SC)C(=O)N(C)C        inactive
 1                CC(=NC#N)N(C)Cc1ccc(Cl)nc1        inactive
 2  CCc1cnc(C2=NC(C)(C(C)C)C(=O)N2)c(C(=O)O)c1 (stereo not drawn)        inactive
 3  COP(=O)(OC)OC(Br)C(Cl)(Cl)Br (stereo not drawn)        inactive
 4                                 S=C1NCCN1        inactive
 5  CCc1cccc(C)c1N(C(=O)CCl)C(C)COC (stereo not drawn)        inactive
 6  CC(C1CC1)C(O)(Cn1cncn1)c1ccc(Cl)cc1 (stereo not drawn)        inactive
 7  Cc1nn(-c2cc(NS(C)(=O)=O)c(Cl)cc2Cl)c(=O)n1C(F)F        inactive
 8   C[Si](Cn1cncn1)(c1ccc(F)cc1)c1ccc(F)cc1        inactive
 9  CCOP(=S)(Oc1cnc(C(C)(C)C)nc1)OC(C)C (stereo not drawn)        inactive
10                                 N#CSCSC#N        inactive
11  CCCCOC(=O)[C@@H](C)Oc1ccc(Oc2ccc(C#N)cc2F)cc1        inactive
12                 CSc1nnc(C(C)(C)C)c(=O)n1N        inactive

----------
Read-out: Interleukin-1 alpha (IL1a), IL1A (gene 3552)
Experiment: BSK_LPS_IL1a: BioMAP Diversity Plus: LPS Assay for Interleukin-1 alpha (IL1a) Biomarker Activity (AID 2283080)
Settings: primary human HUVEC with PBMC; actives raise or lower the signal
Activity calls are given as the source filed them. How the source made its calls: active means hit-call score of the fitted dose curve at least 0.9, where 1 is the maximum; inactive means score below 0.9.
Possible outcomes: t = active, f = inactive

MOLECULE	QUALITATIVE LABEL
FC(F)C(F)(F)OCC(Cn1cncn1)c1ccc(Cl)cc1Cl (stereo not given)	f
CCCSP(=O)(OCC)SCCC	f
CCCOc1nn(C(=O)NS(=O)(=O)c2ccccc2C(=O)OC)c(=O)n1C	f
O=C(O)c1cc(Oc2ccc(C(F)(F)F)cc2Cl)ccc1[N+](=O)[O-]	f
COc1ccc(C(=CC(=O)N2CCOCC2)c2ccc(Cl)cc2)cc1OC	f
CCNc1nc(Cl)nc(NC(C)(C)C#N)n1	f
CCCCOC(=O)c1ccccc1C(=O)O	f
CCOC(=O)COc1cc(-c2nn(C)c(OC(F)F)c2Cl)c(F)cc1Cl	f
COP(=O)(NC(C)=O)SC (stereo not given)	f
S=C1NCCN1	f
CCOP(=S)(Oc1cnc(C(C)(C)C)nc1)OC(C)C (stereo not given)	t
CCC(CC)Nc1c([N+](=O)[O-])cc(C)c(C)c1[N+](=O)[O-]	t
N#CSCSC#N	t
CN(C)NC(=O)CCC(=O)O	f
CC[C@H](C)[C@H]1O[C@]2(C=C[C@@H]1C)C[C@@H]1C[C@@H](C/C=C(\C)[C@@H](O[C@H]3C[C@H](OC)[C@@H](O[C@H]4C[C@H](OC)[C@@H](NC)[C@H](C)O4)[C@H](C)O3)[C@@H](C)/C=C/C=C3\CO[C@@H]4[C@H](O)C(C)=C[C@@H](C(=O)O1)[C@]34O)O2	t
CSC1=N[C@@](C)(c2ccccc2)C(=O)N1Nc1ccccc1	f
CCC(=O)Nc1ccc(Cl)c(Cl)c1	f
COP(=O)(OC)C(O)C(Cl)(Cl)Cl (stereo not given)	f
CCc1cccc(C)c1N(C(=O)CCl)C(C)COC (stereo not given)	f
Cc1cc(C2CC2)nc(Nc2ccccc2)n1	f

----------
Molecular target: Retinoic acid receptor alpha (Homo sapiens) (UniProt P10276)
Sequence (P10276 whole entry, looked up): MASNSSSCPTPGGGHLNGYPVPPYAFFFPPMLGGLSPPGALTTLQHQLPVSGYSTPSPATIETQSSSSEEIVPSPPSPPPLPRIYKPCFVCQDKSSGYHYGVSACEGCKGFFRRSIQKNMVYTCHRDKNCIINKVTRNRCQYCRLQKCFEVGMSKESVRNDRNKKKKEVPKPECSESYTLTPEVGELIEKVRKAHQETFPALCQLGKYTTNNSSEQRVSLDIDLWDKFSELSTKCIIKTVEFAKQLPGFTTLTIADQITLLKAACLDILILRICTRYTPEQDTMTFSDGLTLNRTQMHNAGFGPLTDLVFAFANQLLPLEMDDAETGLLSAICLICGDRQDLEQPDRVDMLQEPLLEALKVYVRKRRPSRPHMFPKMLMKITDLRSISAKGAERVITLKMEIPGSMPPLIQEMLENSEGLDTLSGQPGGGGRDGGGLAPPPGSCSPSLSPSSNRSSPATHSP
Test: ATG_RARa_TRANS: Attagene TRANS-FACTORIAL HepG2 Assay for human Retinoic Acid Receptor alpha (RARa) (AID 2283005)
Inconclusive results are not listed. Calls of active or inactive are those of the source. Rule for the calls: active = hit-call score of the fitted dose curve at least 0.9, where 1 is the maximum; inconclusive = response in the unintended direction; inactive = score below 0.9.
Possible outcomes: active, inactive

>>> print(df.to_string())
                                    compound  qualitative_label
 0  CCOP(=S)(OCC)OC(Cl)C(Cl)(Cl)Cl (stereo not drawn)           inactive
 1  CCOP(=O)(NC(C)C)Oc1ccc(SC)c(C)c1 (stereo not drawn)           inactive
 2                CC(=NC#N)N(C)Cc1ccc(Cl)nc1           inactive
 3                                 N#CSCSC#N           inactive
 4  C#CCC1=C(C)C(OC(=O)C2C(C=C(C)C)C2(C)C)CC1=O (stereo not drawn)           inactive
 5         CC(C)N(C(=O)SCC(Cl)=C(Cl)Cl)C(C)C           inactive
 6  O=C(O)c1cc(Oc2ccc(C(F)(F)F)cc2Cl)ccc1[N+](=O)[O-]             active
 7                        CCCSP(=O)(OCC)SCCC           inactive
 8     CCCOCC(=Nc1ccc(Cl)cc1C(F)(F)F)n1ccnc1             active
 9  FC(F)C(F)(F)OCC(Cn1cncn1)c1ccc(Cl)cc1Cl (stereo not drawn)             active
10                           C[N+]1(C)CCCCC1           inactive
11   CCOP(=S)(OCC)Oc1ccc2c(C)c(Cl)c(=O)oc2c1             active
12                 CSc1nnc(C(C)(C)C)c(=O)n1N           inactive
